- experimental_target: T1, human CD47 (recombinant protein, construct not stated) (human, UniProt Q08722 19-141)
- T1 construct: also called hCD47; human CD47 protein
- assay_explanation: ELISA on coated human CD47
observed_property: Fold increase in EC50 relative to 1-1-A1_BM (fold)

binder | measure_unit | observed_measurement
anti-CD47 clone 1-1-A1_BM IgG1 (antibody, V domains shown) VH: QVQLQQSGPDLKKPGASVKVSCKVSGYTFTNYVIHWVRQKPGQGLEWMGYINPYNDGTKSNEKFKGKATLTSDKSSTSAYMELSSLTSEDTAVYYCASGGYYTMDYWGQGTSVTVSS VL: DVVMTQTPLSLPVTLGDQASISCRSSQHLEYSNGYSYLHWYQQRPGQSPQLLIYKISNRFSGVPDRFSGSGSGTDFTLKISRVEAEDLGVYYCSQSTHVPYTFGGGTKLEIKR | fold | 1
11A1H6-IgG1 (antibody, V domains shown, Humanised version of clone 1-1-A1, IgG1/kappa; also called 1A11H6) VH: QVQLVQSGAEVKKPGASVKVSCKASGYTFTNYVIHWVRQAPGQGLEWMGYINPYNDGTKYNQKFKGRVTLTSDTSTTTAYMELSRLRSDDTAVYYCASGGYYTMDYWGQGTLVASTK VL: DVVMTQSPLSLPVTLGQPASISCRSSQHLEYSQGYSYLHWYQQRPGQSPRLLIYKVSNRDSGVPDRFSGSGSGTDFTLKISRVEAEDVGVYYCSQSTHVPYTFGGGTKVEIKR | fold | 7440
11A1H11-IgG1 (antibody, V domains shown, Humanised version of clone 1-1-A1, IgG1/kappa; also called 1A11H11) VH: QVQLVQSGAEVKKPGASVKVSCKASGYTFTGYVIHWVRQAPGQGLEWMGYINPYNGGTNYAQKFKGRVTLTSDTSTTTAYMELSRLRSEDTAVYYCASGGYYTMDYWGQGTLVTVSS VL: DVVMTQSPLSLPVTLGQPASISCRSSQHLEYSNGYSYLHWYQQRPGQSPRLLIYKISNRFSGVPDRFSGSGSGTDFTLKISRVEAEDVGVYYCSQGTHVPYTFGGGTKVEIKR | fold | 1.17
11A1H9-IgG1 (antibody, V domains shown, Humanised version of clone 1-1-A1, IgG1/kappa; also called 1A11H9) VH: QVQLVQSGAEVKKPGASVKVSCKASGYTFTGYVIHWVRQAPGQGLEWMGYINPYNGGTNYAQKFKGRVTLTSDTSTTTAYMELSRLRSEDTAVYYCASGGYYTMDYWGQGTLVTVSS VL: DVVMTQSPLSLPVTLGQPASISCRSSQHLEYSTGYSYLHWYQQRPGQSPRLLIYKVSNRDSGVPDRFSGSGSGTDFTLKISRVEAEDVGVYYCSQSTHVPYTFGGGTKVEIKR | fold | 13100
